# target-of-assay: Glucocorticoid receptor (Homo sapiens, UniProt P04150)
# Sequence (P04150 whole entry): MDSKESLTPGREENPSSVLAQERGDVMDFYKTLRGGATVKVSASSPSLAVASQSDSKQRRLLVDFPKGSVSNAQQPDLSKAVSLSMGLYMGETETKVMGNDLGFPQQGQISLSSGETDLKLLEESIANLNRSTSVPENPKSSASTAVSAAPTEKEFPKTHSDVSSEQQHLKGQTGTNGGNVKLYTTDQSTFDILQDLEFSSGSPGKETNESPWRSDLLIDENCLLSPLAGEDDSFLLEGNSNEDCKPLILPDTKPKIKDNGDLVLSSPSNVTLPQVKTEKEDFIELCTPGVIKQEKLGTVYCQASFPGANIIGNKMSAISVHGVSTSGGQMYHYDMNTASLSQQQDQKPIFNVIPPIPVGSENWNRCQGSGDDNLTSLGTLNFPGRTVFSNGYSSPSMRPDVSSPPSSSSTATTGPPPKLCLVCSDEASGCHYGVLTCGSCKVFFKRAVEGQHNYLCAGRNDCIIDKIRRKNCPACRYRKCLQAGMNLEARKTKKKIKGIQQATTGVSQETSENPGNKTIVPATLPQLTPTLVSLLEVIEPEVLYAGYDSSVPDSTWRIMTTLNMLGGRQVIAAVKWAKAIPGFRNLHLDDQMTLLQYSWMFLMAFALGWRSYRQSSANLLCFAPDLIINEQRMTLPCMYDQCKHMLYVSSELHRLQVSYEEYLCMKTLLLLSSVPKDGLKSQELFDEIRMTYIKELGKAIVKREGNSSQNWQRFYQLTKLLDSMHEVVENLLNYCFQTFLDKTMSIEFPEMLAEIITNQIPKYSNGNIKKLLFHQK
# protocol-text: Displacement of [3H]dexamethasone from human recombinant GR
Measured Ki, listed per entry for reference.

molecule | target-of-assay | Ki, nM
O=S(=O)(c1ccccc1)N1CCC2=Cc3c(cnn3-c3ccc(F)cc3)CC2(Cc2ccc(F)cc2)C1 (racemic) | Glucocorticoid receptor (Homo sapiens, UniProt P04150) | 2.2
CN(C)C[C@]12Cc3cnn(-c4ccc(F)cc4)c3C=C1CCN(S(=O)(=O)c1ccc(F)cc1)C2 | Glucocorticoid receptor (Homo sapiens, UniProt P04150) | 2.6
CC(C)(C)c1ccc(S(=O)(=O)N2CCC3=Cc4c(cnn4-c4ccc(F)cc4)C[C@]3(CN3CCCCC3)C2)cc1 | Glucocorticoid receptor (Homo sapiens, UniProt P04150) | 1.6
CN(C)CCNC[C@]12Cc3cnn(-c4ccc(F)cc4)c3C=C1CCN(S(=O)(=O)c1ccc(C(C)(C)C)cc1)C2 | Glucocorticoid receptor (Homo sapiens, UniProt P04150) | 3.8
COCCOC[C@]12Cc3cnn(-c4ccc(F)cc4)c3C=C1CCN(S(=O)(=O)c1ccc(C(C)(C)C)cc1)C2 | Glucocorticoid receptor (Homo sapiens, UniProt P04150) | 0.7
COC[C@]12Cc3cnn(-c4ccc(F)cc4)c3C=C1CCN(S(=O)(=O)c1ccc(C)cc1)C2 | Glucocorticoid receptor (Homo sapiens, UniProt P04150) | 0.5
C[C@]12Cc3cnn(-c4ccc(F)cc4)c3C=C1CCN(S(=O)(=O)c1ccc(F)cc1)C2 | Glucocorticoid receptor (Homo sapiens, UniProt P04150) | 9
CC(C)(C)c1ccc(S(=O)(=O)N2CCC3=Cc4c(cnn4-c4ccc(F)cc4)C[C@]3(CN3CCOCC3)C2)cc1 | Glucocorticoid receptor (Homo sapiens, UniProt P04150) | 0.9
O=S(=O)(c1ccc(F)cc1)N1CCC2=Cc3c(cnn3-c3ccc(F)cc3)C[C@]2(CN2CCCC2)C1 | Glucocorticoid receptor (Homo sapiens, UniProt P04150) | 1.6
O=S(=O)(c1ccc(F)cc1)N1CCC2=Cc3c(cnn3-c3ccc(F)cc3)CC2(Cc2ccc(F)cc2)C1 (racemic) | Glucocorticoid receptor (Homo sapiens, UniProt P04150) | 1.4
COC[C@]12Cc3cnn(-c4ccc(F)cc4)c3C=C1CCN(S(=O)(=O)c1ccc(C(C)(C)C)cc1)C2 | Glucocorticoid receptor (Homo sapiens, UniProt P04150) | 0.8
CC(C)(C)c1ccc(S(=O)(=O)N2CCC3=Cc4c(cnn4-c4ccc(F)cc4)C[C@]3(CN3CCCC3)C2)cc1 | Glucocorticoid receptor (Homo sapiens, UniProt P04150) | 1.1
Cc1ccc(S(=O)(=O)N2CCC3=Cc4c(cnn4-c4ccc(F)cc4)C[C@]3(C)C2)cc1 | Glucocorticoid receptor (Homo sapiens, UniProt P04150) | 2.3
CCNC[C@]12Cc3cnn(-c4ccc(F)cc4)c3C=C1CCN(S(=O)(=O)c1ccc(C(C)(C)C)cc1)C2 | Glucocorticoid receptor (Homo sapiens, UniProt P04150) | 2.4
Cc1ccc(S(=O)(=O)N2CCC3=Cc4c(cnn4-c4ccc(F)cc4)CC3(Cc3ccc(F)cc3)C2)cc1 (racemic) | Glucocorticoid receptor (Homo sapiens, UniProt P04150) | 1.5
CC(C)(C)c1ccc(S(=O)(=O)N2CCC3=Cc4c(cnn4-c4ccc(F)cc4)C[C@]3(Cc3ccccc3)C2)cc1 | Glucocorticoid receptor (Homo sapiens, UniProt P04150) | 1.4
CN(C)C[C@]12Cc3cnn(-c4ccc(F)cc4)c3C=C1CCN(S(=O)(=O)c1ccc(C(C)(C)C)cc1)C2 | Glucocorticoid receptor (Homo sapiens, UniProt P04150) | 1.2
Cc1ccccc1S(=O)(=O)N1CCC2=Cc3c(cnn3-c3ccc(F)cc3)C[C@]2(C)C1 | Glucocorticoid receptor (Homo sapiens, UniProt P04150) | 22
O=S(=O)(N1CCOCC1)N1CCC2=Cc3c(cnn3-c3ccc(F)cc3)CC2(Cc2ccc(F)cc2)C1 (racemic) | Glucocorticoid receptor (Homo sapiens, UniProt P04150) | 26
O=S(=O)(c1ccccc1)N1CCC2=Cc3c(cnn3-c3ccc(F)cc3)C[C@]2(CO)C1 | Glucocorticoid receptor (Homo sapiens, UniProt P04150) | 10
COCCCOC[C@]12Cc3cnn(-c4ccc(F)cc4)c3C=C1CCN(S(=O)(=O)c1ccc(C(C)(C)C)cc1)C2 | Glucocorticoid receptor (Homo sapiens, UniProt P04150) | 0.8
CCOC[C@]12Cc3cnn(-c4ccc(F)cc4)c3C=C1CCN(S(=O)(=O)c1ccc(C(F)(F)F)cc1)C2 | Glucocorticoid receptor (Homo sapiens, UniProt P04150) | 0.9
CN(C)C[C@]12Cc3cnn(-c4ccc(F)cc4)c3C=C1CCN(S(=O)(=O)c1ccccc1)C2 | Glucocorticoid receptor (Homo sapiens, UniProt P04150) | 1.1
CC(C)(C)c1ccc(S(=O)(=O)N2CCC3=Cc4c(cnn4-c4ccc(F)cc4)C[C@]3(COCCN3CCCCC3)C2)cc1 | Glucocorticoid receptor (Homo sapiens, UniProt P04150) | 8.6
CC(C)(C)c1ccc(S(=O)(=O)N2CCC3=Cc4c(cnn4-c4ccc(F)cc4)CC3(Cc3ccc(F)cc3)C2)cc1 (racemic) | Glucocorticoid receptor (Homo sapiens, UniProt P04150) | 1.3
CCN(CC)C[C@]12Cc3cnn(-c4ccc(F)cc4)c3C=C1CCN(S(=O)(=O)c1ccc(C(C)(C)C)cc1)C2 | Glucocorticoid receptor (Homo sapiens, UniProt P04150) | 1.7
C[C@]12Cc3cnn(-c4ccc(F)cc4)c3C=C1CCN(S(=O)(=O)c1ccc(N)cc1)C2 | Glucocorticoid receptor (Homo sapiens, UniProt P04150) | 17
CN1CCN(C[C@]23Cc4cnn(-c5ccc(F)cc5)c4C=C2CCN(S(=O)(=O)c2ccc(C(C)(C)C)cc2)C3)CC1 | Glucocorticoid receptor (Homo sapiens, UniProt P04150) | 6.7
Fc1ccc(CC23Cc4cnn(-c5ccc(F)cc5)c4C=C2CCN(Cc2cccnc2)C3)cc1 (racemic) | Glucocorticoid receptor (Homo sapiens, UniProt P04150) | 22
COC[C@]12Cc3cnn(-c4ccc(F)cc4)c3C=C1CCN(S(=O)(=O)c1ccc(C(F)(F)F)cc1)C2 | Glucocorticoid receptor (Homo sapiens, UniProt P04150) | 0.8
CC(C)(C)c1ccc(S(=O)(=O)N2CCC3=Cc4c(cnn4-c4ccc(F)cc4)C[C@]3(CNCCO)C2)cc1 | Glucocorticoid receptor (Homo sapiens, UniProt P04150) | 2.8
COc1ccc(S(=O)(=O)N2CCC3=Cc4c(cnn4-c4ccc(F)cc4)C[C@]3(C)C2)cc1 | Glucocorticoid receptor (Homo sapiens, UniProt P04150) | 3.7
